Measured pKi by item
- System name: Adenosylhomocysteinase (Homo sapiens, UniProt P23526)
- Test: Binding affinity towards purified recombinant human placental S-adenosyl-L-homocysteine hydrolase
- Sequence (P23526 whole entry): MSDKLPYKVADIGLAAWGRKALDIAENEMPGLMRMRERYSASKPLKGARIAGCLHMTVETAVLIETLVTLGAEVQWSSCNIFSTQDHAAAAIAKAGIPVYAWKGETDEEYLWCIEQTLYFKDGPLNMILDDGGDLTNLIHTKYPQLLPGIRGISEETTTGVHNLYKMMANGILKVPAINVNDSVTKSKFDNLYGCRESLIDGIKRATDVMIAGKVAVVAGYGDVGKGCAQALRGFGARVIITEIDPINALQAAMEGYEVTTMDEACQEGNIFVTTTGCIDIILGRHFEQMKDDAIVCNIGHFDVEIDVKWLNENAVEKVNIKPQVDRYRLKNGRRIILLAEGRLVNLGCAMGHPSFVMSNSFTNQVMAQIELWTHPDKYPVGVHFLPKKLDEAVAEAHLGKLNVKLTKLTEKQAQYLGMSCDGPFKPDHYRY
Please note pKi is a logarithmic value: minus log10 of concentration in mol/L. Answer with that number alone.

-- ask Look at this compound and give its reported pKi. Nc1ncnc2c1ncn2[C@@H]1C[C@@H](C=O)[C@@H](O)[C@H]1O
-- reply 6.56

-- ask Look at this compound and give its reported pKi. Nc1ncnc2c1ncn2[C@@H]1O[C@H](C=O)[C@@H](O)[C@H]1O
-- reply 7.37

-- ask Look at this compound and give its reported pKi. Nc1ncnc2c1ncn2[C@@H]1O[C@@H](C=O)[C@@H](O)[C@H]1O
-- reply 7.41

-- ask Look at this compound and give its reported pKi. Nc1ncnc2c1ncn2[C@@H]1C[C@H](C=O)[C@@H](O)[C@H]1O
-- reply 5.35

---

- System name: Adenosylhomocysteinase (Homo sapiens, UniProt P23526)
Measured quantity: k2 (min⁻¹)
State the answer as a number, implicitly in min⁻¹.

Study these solved cases before continuing.
{"columns": ["Smiles str", "System name", "k2 (min⁻¹)"],
 "data": [
  ["Nc1ncnc2c1ncn2[C@@H]1O[C@H](C=O)[C@@H](O)[C@H]1O", "Adenosylhomocysteinase (Homo sapiens, UniProt P23526)", 0.22],
  ["Nc1ncnc2c1ncn2[C@@H]1C[C@H](C=O)[C@@H](O)[C@H]1O", "Adenosylhomocysteinase (Homo sapiens, UniProt P23526)", 0.37],
  ["Nc1ncnc2c1ncn2[C@@H]1O[C@@H](C=O)[C@@H](O)[C@H]1O", "Adenosylhomocysteinase (Homo sapiens, UniProt P23526)", 0.65]
]}

Query molecule follows.
-- ask Hello, I am looking for reported k2 with Adenosylhomocysteinase (Homo sapiens, UniProt P23526) for Nc1ncnc2c1ncn2[C@@H]1C[C@@H](C=O)[C@@H](O)[C@H]1O . Could you help?
-- reply 1.2
